# Test system: DNA
# procedure_summary: Binding affinity to calf thymus DNA
# Assay type: nucleic-acid assay
# experimental_setup: Bos taurus
reported_property: ΔTm (°C)

structure_as_smiles | system_under_test | reported_property | readout_value
CN(C)CCN1C(=O)c2cccc3c2c(cc2[nH]c(-c4cccnc4)nc23)C1=O | DNA | ΔTm | 4
Cc1ccc(-c2nc3c(cc4c5c(cccc53)C(=O)N(CCN(C)C)C4=O)[nH]2)cc1 | DNA | ΔTm | 6.6
CN(C)CCN1C(=O)c2cccc3c2c(cc2[nH]c(-c4ccco4)nc23)C1=O | DNA | ΔTm | 6.8
CCOc1ccc(-c2nc3c(cc4c5c(cccc53)C(=O)N(CCN(C)C)C4=O)[nH]2)cc1 | DNA | ΔTm | 10.5
CN(C)CCN1C(=O)c2cccc3c2c(cc2[nH]c(-c4ccsc4)nc23)C1=O | DNA | ΔTm | 8.4
